tested on: HIV-1A17; assay: microbe, parasite or virus in culture; settings: Human immunodeficiency virus 1, C8166
Record form. Attribute: EC50. Fill in for each entry.
Answer format: numeric, nM implied, no suffix.

Prompt: May I ask what EC50 has been recorded for C[C@H]1N2C(=O)c3c(O)c(=O)c(C(=O)NCc4ccc(F)cc4F)cn3C[C@@H]2OCC12CC2 [ACC017] ?
Completion: 8.51

Prompt: And C[C@@H]1CCO[C@H]2Cn3cc(C(=O)NCc4ccc(F)cc4F)c(=O)c(O)c3C(=O)N12 [DTG, Dolutegravir] ?
Completion: 4.78

* * *

biological target: HIV-1 mutant N155H integrase (Human immunodeficiency virus type 1 group M subtype B, UniProt P04585, N1302H); assay: biochemical; conditions: HIV-1N155H integrase, mean n = 4
observationType: pIC50
Units for pIC50: none; it is -log10 of a concentration expressed in mol/L.

Prompt: May I ask what pIC50 has been recorded for C[C@H]1N2C(=O)c3c(O)c(=O)c(C(=O)NCc4ccc(F)cc4F)cn3C[C@@H]2OCC12CC2 ?
Completion: 8.00

* * *

system: HIV-1IIIB; assay: microbe, parasite or virus in culture; conditions: Human immunodeficiency virus 1, C8166, HIV-1IIIB, p24 (Table 4, resistance study)
observationType: EC50 (nM)
Answer format: numeric, nM implied, no suffix.

Prompt: May I ask what EC50 has been recorded for Nc1ccn([C@@H]2CS[C@H](CO)O2)c(=O)n1 ?
Completion: 181

Prompt: And C[C@@H]1CCO[C@H]2Cn3cc(C(=O)NCc4ccc(F)cc4F)c(=O)c(O)c3C(=O)N12 ?
Completion: 1.18

Prompt: And C[C@H]1N2C(=O)c3c(O)c(=O)c(C(=O)NCc4ccc(F)cc4F)cn3C[C@@H]2OCC12CC2 ?
Completion: 1.25

Prompt: And O=C1Nc2ccc(Cl)cc2[C@@](C#CC2CC2)(C(F)(F)F)O1 ?
Completion: 0.6

* * *

test system: HIV-1IIIB; assay: microbe, parasite or virus in culture; settings: Human immunodeficiency virus 1, C8166, HIV-1IIIB, C8166, p24, 20% human serum
observationType: pEC50
Units for pEC50: none; it is -log10 of a concentration expressed in mol/L.

Prompt: May I ask what pEC50 has been recorded for C[C@H]1N2C(=O)c3c(O)c(=O)c(C(=O)NCc4ccc(F)cc4F)cn3C[C@@H]2OCC12CC2 [ACC017] ?
Completion: 8.08

Prompt: And C[C@@H]1CCO[C@H]2Cn3cc(C(=O)NCc4ccc(F)cc4F)c(=O)c(O)c3C(=O)N12 [DTG, Dolutegravir] ?
Completion: 7.47

* * *

assay: Cytotoxicity MTT assay in PBMCs; format: cell-based; settings: human, peripheral blood mononuclear cells (PBMCs), PBMC
observationType: CC50 at 7 d (µM)
Answer format: numeric, µM implied, no suffix.

Prompt: May I ask what CC50 at 7 d has been recorded for C[C@H]1N2C(=O)c3c(O)c(=O)c(C(=O)NCc4ccc(F)cc4F)cn3C[C@@H]2OCC12CC2 [ACC017] ?
Completion: 15.2

Prompt: And C[C@@H]1CCO[C@H]2Cn3cc(C(=O)NCc4ccc(F)cc4F)c(=O)c(O)c3C(=O)N12 [DTG, Dolutegravir] ?
Completion: 14.6

* * *

experiment: Cytotoxicity MTT assay in MT4 cells; assay type: cell-based; conditions: human
observationType: CC50 at 3 d (µM)
Answer format: numeric, µM implied, no suffix.

Prompt: May I ask what CC50 at 3 d has been recorded for C[C@H]1N2C(=O)c3c(O)c(=O)c(C(=O)NCc4ccc(F)cc4F)cn3C[C@@H]2OCC12CC2 ?
Completion: 24.8

Prompt: And C[C@@H]1CCO[C@H]2Cn3cc(C(=O)NCc4ccc(F)cc4F)c(=O)c(O)c3C(=O)N12 ?
Completion: 24.9

* * *

test: Cytotoxicity MTT assay in C8166 cells; assay type: cell-based; conditions: human
observationType: CC50 at 3 d (µM)
Answer format: numeric, µM implied, no suffix.

Prompt: May I ask what CC50 at 3 d has been recorded for C[C@@H]1CCO[C@H]2Cn3cc(C(=O)NCc4ccc(F)cc4F)c(=O)c(O)c3C(=O)N12 [DTG, Dolutegravir] ?
Completion: 20.3

Prompt: And C[C@H]1N2C(=O)c3c(O)c(=O)c(C(=O)NCc4ccc(F)cc4F)cn3C[C@@H]2OCC12CC2 [ACC017] ?
Completion: 20.4

* * *

system: HIV-1DRACC017; test: microbe, parasite or virus in culture; assay type: cell-based; conditions: Human immunodeficiency virus 1; HIV-1DRACC017, p24
Record form. Attribute: EC50. Fill in for each entry.
Answer format: numeric, µM implied, no suffix.

Prompt: May I ask what EC50 has been recorded for Nc1ccn([C@@H]2CS[C@H](CO)O2)c(=O)n1 ?
Completion: 0.322

Prompt: And O=C1Nc2ccc(Cl)cc2[C@@](C#CC2CC2)(C(F)(F)F)O1 ?
Completion: 0.00124

* * *

tested on: NL4-3; assay: microbe, parasite or virus in culture; type: cell-based; details: Human immunodeficiency virus 1, NL43; NL4-3, p24
Record form. Attribute: EC50. Fill in for each entry.
The answer should read as a number with its unit following.

Prompt: May I ask what EC50 has been recorded for O=C1Nc2ccc(Cl)cc2[C@@](C#CC2CC2)(C(F)(F)F)O1 ?
Completion: 1.51 nM

Prompt: And Nc1ccn([C@@H]2CS[C@H](CO)O2)c(=O)n1 ?
Completion: 198 nM

Prompt: And C[C@H]1N2C(=O)c3c(O)c(=O)c(C(=O)NCc4ccc(F)cc4F)cn3C[C@@H]2OCC12CC2 ?
Completion: 1.7 nM

Prompt: And C[C@@H]1CCO[C@H]2Cn3cc(C(=O)NCc4ccc(F)cc4F)c(=O)c(O)c3C(=O)N12 ?
Completion: 2.41 nM
